Recorded values, source PubChem BioAssay (EPA / NIEHS).

Read-out: Vascular cell adhesion molecule 1 (VCAM1), VCAM1 (gene 7412)
measurementNotes: BSK_LPS_VCAM1: BioMAP Diversity Plus: LPS Assay for Vascular cell adhesion molecule 1 (VCAM1) Biomarker Activity (AID 2283086)
statedConditions: primary human HUVEC with PBMC; actives raise or lower the signal
Activity calls are given as the source filed them. The calls were made as follows: active = hit-call score of the fitted dose curve at least 0.9, where 1 is the maximum; inactive = score below 0.9.
Tick one outcome: yes (1) = active, no (0) = inactive

Example entries begin here.
                                   molecule  classlabel
0                     Cc1cc(Cl)ccc1OCC(=O)O      no (0)
1                O=C(O)COc1nc(Cl)c(Cl)cc1Cl      no (0)
2  COc1cnc(OC)n2nc(NS(=O)(=O)c3c(OCC(F)F)cccc3C(F)(F)F)nc12      no (0)

query: Query: recorded result category for C#CCOS(=O)OC1CCCCC1Oc1ccc(C(C)(C)C)cc1 (centres undefined) in this test
result: yes (1)

---

assayedTarget: rat Peripheral-type Benzodiazepine Receptor (PBR), Tspo (gene 24230) (UniProt P16257)
Sequence (P16257 whole entry, looked up): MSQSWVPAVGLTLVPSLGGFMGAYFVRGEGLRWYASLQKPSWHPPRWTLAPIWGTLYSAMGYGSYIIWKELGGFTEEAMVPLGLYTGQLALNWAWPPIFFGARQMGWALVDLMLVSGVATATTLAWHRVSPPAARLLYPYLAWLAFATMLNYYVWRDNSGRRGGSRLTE
measurementNotes: NVS_MP_rPBR: NovaScreen (NVS) Membrane Protein Assay for rat Peripheral-type Benzodiazepine Receptor (PBR) (AID 2283335)
Records with an inconclusive call do not appear. Active and inactive are the calls of the source. Rule for the calls: active = hit-call score of the fitted dose curve at least 0.9, where 1 is the maximum; inconclusive = response in the unintended direction; inactive = score below 0.9.
observationType: AC50

>>> print(df.to_string())
                                   molecule                             assayedtarget  experimentalvalue
0      CCOP(=S)(OCC)SCn1c(=O)oc2cc(Cl)ccc21  rat Peripheral-type Benzodiazepine Receptor (PBR), Tspo (gene 24230) (UniProt P16257)   4.01 µM (active)
1                      CCNc1nc(Cl)nc(NCC)n1  rat Peripheral-type Benzodiazepine Receptor (PBR), Tspo (gene 24230) (UniProt P16257)           inactive
2  CCCCC(CC)COC(=O)c1ccccc1C(=O)OCC(CC)CCCC (centres undefined)  rat Peripheral-type Benzodiazepine Receptor (PBR), Tspo (gene 24230) (UniProt P16257)   15.6 µM (active)
3  CC1COC(Cn2cncn2)(c2ccc(Oc3ccc(Cl)cc3)cc2Cl)O1 (centres undefined)  rat Peripheral-type Benzodiazepine Receptor (PBR), Tspo (gene 24230) (UniProt P16257)           inactive

---

Read-out: Monocyte Chemoattractant Protein-1 (MCP1), CCL2 (gene 6347)
measurementNotes: BSK_4H_MCP1: BioMAP Diversity Plus: 4H Assay for Monocyte Chemoattractant Protein-1 (MCP1) Biomarker Activity (AID 2283018)
statedConditions: primary human endothelial cells (HUVEC); actives raise or lower the signal
Active and inactive are the calls of the source. How the source made its calls: active means hit-call score of the fitted dose curve at least 0.9, where 1 is the maximum; inactive means score below 0.9.
Tick one outcome: true for active, false for inactive

Example entries begin here.
>>> print(df.to_string())
                                   molecule  classlabel
0            COP(=S)(OC)Oc1nc(Cl)c(Cl)cc1Cl       false
1  CCCN(CCC)c1c([N+](=O)[O-])cc(S(N)(=O)=O)cc1[N+](=O)[O-]        true
2  N#Cc1nn(-c2c(Cl)cc(C(F)(F)F)cc2Cl)c(N)c1S(=O)C(F)(F)F (stereo unspecified)        true

query: Query: recorded result category for CC(C)C1(C)N=C(c2nc3ccccc3cc2C(=O)O)NC1=O (stereo unspecified) in this test
result: false

query: Query: recorded result category for `CNC(=O)ON=CC(C)(C)SC` in this test
result: false

query: Query: recorded result category for `COc1nc(C)nc(NC(=O)NS(=O)(=O)c2ccccc2Cl)n1` in this test
result: false

---

Read-out: Vascular endothelial growth factor receptor 2 (Homo sapiens) (UniProt P35968)
measurementNotes: BSK_4H_VEGFRII: BioMAP Diversity Plus: 4H Assay for Vascular endothelial growth factor receptor 2 (VEGFR2) Biomarker Activity (AID 2283031)
statedConditions: primary human endothelial cells (HUVEC); actives raise or lower the signal
Calls of active or inactive are those of the source. How the source made its calls: active means hit-call score of the fitted dose curve at least 0.9, where 1 is the maximum; inactive means score below 0.9.
Tick one outcome: 1 (yes) (active), 0 (no) (inactive)

Example entries begin here.
>>> print(df.to_string())
                                   compound  classlabel
0                      O=C(O)c1nc(Cl)ccc1Cl      0 (no)
1  C=CC1(C)OC(=O)N(c2cc(Cl)cc(Cl)c2)C1=O (configuration not stated)      0 (no)
2  Cc1ccc(-c2c(Cl)nc(C#N)n2S(=O)(=O)N(C)C)cc1     1 (yes)
3         CCCCNC(=O)n1c(NC(=O)OC)nc2ccccc21      0 (no)
4            COP(=S)(OC)Oc1nc(Cl)c(Cl)cc1Cl      0 (no)

query: Query: recorded result category for `O=C(Nc1ccccc1)Nc1ccnc(Cl)c1` in this test
result: 0 (no)

query: Query: recorded result category for CCCCC(CC)COC(=O)c1ccccc1C(=O)OCC(CC)CCCC (configuration not stated) in this test
result: 0 (no)

---

Read-out: Glutamate-cysteine ligase catalytic (GCLC), GCLC (gene 2729)
measurementNotes: LTEA_HepaRG_GCLC: Life Technologies and Expression Analysis (LTEA) Assay for Glutamate-cysteine ligase catalytic (GCLC) using HepaRG (AID 2283498)
statedConditions: mRNA level, 48 h; actives raise or lower the signal
The source made the active and inactive calls. The calls were made as follows: active = hit-call score of the fitted dose curve at least 0.9, where 1 is the maximum; inactive = score below 0.9.
Tick one outcome: active, inactive

>>> print(df.to_string())
                                   compound  classlabel
0    COc1ccc(C(c2ccc(OC)cc2)C(Cl)(Cl)Cl)cc1      active
1  CC1COC(Cn2cncn2)(c2ccc(Oc3ccc(Cl)cc3)cc2Cl)O1 (stereo unspecified)    inactive
2  CCOC(=O)C(Cl)Cc1cc(-n2nc(C)n(C(F)F)c2=O)c(F)cc1Cl (stereo unspecified)    inactive
3  CO/C=C(/C(=O)OC)c1ccccc1Oc1cc(Oc2ccccc2C#N)ncn1    inactive

query: Query: recorded result category for `Cc1ccc(-c2c(Cl)nc(C#N)n2S(=O)(=O)N(C)C)cc1` in this test
result: active

query: Query: recorded result category for `N#Cc1cc(Br)c(O)c(Br)c1` in this test
result: active

query: Query: recorded result category for `O=C(O)COc1nc(Cl)c(Cl)cc1Cl` in this test
result: inactive

query: Query: recorded result category for `COP(=S)(OC)Oc1nc(Cl)c(Cl)cc1Cl` in this test
result: inactive

query: Query: recorded result category for `CCCCOC(=O)c1ccccc1C(=O)OCCCC` in this test
result: inactive

query: Query: recorded result category for `CCCCNC(=O)n1c(NC(=O)OC)nc2ccccc21` in this test
result: inactive

query: Query: recorded result category for `CNC(=O)ON=CC(C)(C)SC` in this test
result: inactive

---

measurementNotes: Tanguay_ZF_120hpf_MORT_legacy: (Legacy) Oregon State University Tanguay Lab 120 Hour Post-fertilization zebrafish Assay for Mortality (AID 2283633)
Calls of active or inactive are those of the source. How the source made its calls: active means hit-call score of the fitted dose curve at least 0.9, where 1 is the maximum; inconclusive means response in the unintended direction; inactive means score below 0.9.
Tick one outcome: active, inactive

Example entries begin here.
>>> print(df.to_string())
                     molecule  classlabel
0            CCCCNC(=O)OCC#CI      active
1        CCNc1nc(Cl)nc(NCC)n1    inactive
2      CN(C)C(=S)SSC(=S)N(C)C    inactive
3  O=C(O)COc1nc(Cl)c(Cl)cc1Cl    inactive

query: Query: recorded result category for C#CCOS(=O)OC1CCCCC1Oc1ccc(C(C)(C)C)cc1 (stereo not given) in this test
result: inactive

---

measurementNotes: IUF_NPC1a_proliferation_area_72hr: Leibniz Research Institute for Environmental Medicine (IUF) 72-hour Neural Progenitor Cell Proliferation Area Assay (NPC1a) (AID 2284208)
Calls of active or inactive are those of the source. Rule for the calls: active = hit-call score of the fitted dose curve at least 0.9, where 1 is the maximum; inactive = score below 0.9.
observationType: AC50

Take a look at these entries with their results.
>>> print(df.to_string())
                                   compound  experimentalvalue
0  CCOc1cc(Oc2ccc(C(F)(F)F)cc2Cl)ccc1[N+](=O)[O-]           inactive
1           COP(N)(=O)SC (stereo not drawn)           inactive
2                    CN(C)C(=S)SSC(=S)N(C)C   67.2 µM (active)
3  CCCCC(CC)COC(=O)c1ccccc1C(=O)OCC(CC)CCCC (stereo not drawn)           inactive
4  CO/C=C(/C(=O)OC)c1ccccc1Oc1cc(Oc2ccccc2C#N)ncn1   60.2 µM (active)

query: Would you kindly share the measured AC50 for `COC(=O)N(OC)c1ccccc1COc1ccn(-c2ccc(Cl)cc2)n1` ?
result: 1.44 µM (active)

query: Would you kindly share the measured AC50 for `CC(C)(C)c1ccc(CSc2cnn(C(C)(C)C)c(=O)c2Cl)cc1` ?
result: 0.0126 µM (active)

query: Would you kindly share the measured AC50 for `CCCCOC(=O)c1ccccc1C(=O)OCCCC` ?
result: inactive
